B1: CLCN6 (parent)
chain: MAGCRGSLCCCCRWCCCCGERETR

variants of: B1; assay: protein stability index of a GFP-peptide fusion (GPS, HEK-293T) (PSI 1-6); higher = more stable; conditions: c terminus: a fixed tail appended;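 further: lentivirally expressed fusions sorted by FACS into six bins by GFP to DsRed ratio, PSI derived from sequencing read proportions per bin multiplied by bin number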
Would you mind telling me the reported protein stability index of each entry?
Answers are plain numbers.

Here is how some variants turned out for protein stability index.
Macromolecule Sequence	protein stability index
MAGCRGSLCCCCRWCLCCGERETR [C16L]	1.55
MAGCRGSLCCCCRWCCCCGERLTR [E22L]	2.3
AAGCRGSLCCCCRWCCCCGERETR [M1A]	1.91
MAPCRGSLCCCCRWCCCCGERETR [G3P]	1.27
MAGCRGSLCCCCRCCCCCGERETR [W14C]	1.53

Consider now this further variant.
Tell me the measured protein stability index of CAGCRGSLCCCCRWCCCCGERETR [M1C] , please.
1.98
